# PROTOCOL: MTT cell viability assay
# Type: cell-based
# DETAILS: human, Hep G2 hepatoblastoma cells, read-out: decrease of viability
RECORDED ENDPOINT: cytotoxicity at 72 h, 50 μM

Data point: Cc1c(OCC(O)C[N+](C)(C)C)cc2c(=O)c3ccccc3sc2c1C.[Cl-] (stereo not shown) ; cytotoxicity at 72 h, 50 μM = 20 to 40%

----------
# PROTOCOL: MTT cell viability assay
# Type: cell-based
# DETAILS: human, ZR-75-1 estrogen receptor-positive breast cancer cells, read-out: decrease of viability
# Method: The NIH 3T3 (normal) mouse fibroblast, A431 human epidermoid adenocarcinoma, and MCF-7 human breast cancer cells were cultured in DMEM medium containing 10% FBS. The MEL-28 human melanoma cells were cultured in MEM medium containing 10% FBS. The HT-29 human colon adenocarcinoma cells were cultured in McCoy's 5a medium containing 10% FBS. The A549 human lung carcinoma cells were maintained in Ham's F12K medium containing 10% FBS. […]
RECORDED ENDPOINT: cytotoxicity at 72 h, 50 μM

Data point: Cc1c(OCC(O)C[N+](C)(C)C)cc2c(=O)c3ccccc3sc2c1C.[Cl-] (stereo not shown) ; cytotoxicity at 72 h, 50 μM = 20 to 40%

The measured values listed here are drawn from patent US7781423B2.
